Target: the molecule itself
Experiment: native-gel electrophoresis, self-association in aqueous solution
ENDPOINT_LABEL: binding result

[[record]]
protein = "flagellin mutant (A151W) of V. vulnificus flagellin FlaB (ligand, Recombinant, from pTYB12 intein fusion in E. coli ER2566) MAVNVNTNVAAMTAQRYLNNANSAQQTSMERLSSGFKINSAKDDAAGLQISNRLNVQSRGLDVAVRNANDGISIAQTAEGAMNETTNILQRMRDLSLQSANGSNSKSERVAIQEEVTALNDELNRIAETTSFGGNKLLNGTYGTKAMQIGWDNGEAVMLSLKDMRSDNVMMGGVSYQAEEGKDKNWNVAAGDNDLTIALTDSFGNEQEIEINAKAGDDIEELATYINGQTDLVKASVGEGGKLQIFAGNNKVQGEIAFSGSLAGELGLGEGKNVTVDTIDVTTVQGAQESVAIVDAALKYVDSHRAELGAFQNRFNHAISNLDNINENVNASKSRIKDTDFAKETTQLTKTQILSQASSSILAQAKQAPNSALSLLG"
result = "binds"

[[record]]
protein = "flagellin mutant (D70A/N135D) of V. vulnificus flagellin FlaB (ligand, Recombinant, from pTYB12 intein fusion in E. coli ER2566; also called dual site-directed mutant flagellin) MAVNVNTNVAAMTAQRYLNNANSAQQTSMERLSSGFKINSAKDDAAGLQISNRLNVQSRGLDVAVRNANAGISIAQTAEGAMNETTNILQRMRDLSLQSANGSNSKSERVAIQEEVTALNDELNRIAETTSFGGDKLLNGTYGTKAMQIGADNGEAVMLSLKDMRSDNVMMGGVSYQAEEGKDKNWNVAAGDNDLTIALTDSFGNEQEIEINAKAGDDIEELATYINGQTDLVKASVGEGGKLQIFAGNNKVQGEIAFSGSLAGELGLGEGKNVTVDTIDVTTVQGAQESVAIVDAALKYVDSHRAELGAFQNRFNHAISNLDNINENVNASKSRIKDTDFAKETTQLTKTQILSQASSSILAQAKQAPNSALSLLG"
result = "binds"

